Kindly supply the reported melting point values for the records listed here.

Check the records and state melting point for `COc1c(/C=C/c2ccc(NS(C)(=O)=O)cc2C(=O)O)cc(N2CCCNC2=O)cc1C(C)(C)C`
275 to 278 °C

Check the records and state melting point for `COc1c(/C=C/c2ccc(NS(C)(=O)=O)cc2)cc(-n2ccccc2=O)cc1C(C)(C)C`
254 to 256 °C

Check the records and state melting point for `COc1c(/C=C/c2ccc(NS(C)(=O)=O)cc2)cc(-n2c(C)n[nH]c2=O)cc1C(C)(C)C`
289 to 291 °C

Check the records and state melting point for `COc1c(CCc2ccc(NS(C)(=O)=O)cc2)cc(N2CCCNC2=O)cc1C(C)(C)C`
244 to 246 °C

Check the records and state melting point for `COc1c(/C=C/c2ccc(NS(C)(=O)=O)cc2)cc(N2CCCNS2(=O)=O)cc1C(C)(C)C`
255 to 257 °C

Check the records and state melting point for `COc1c(/C=C/c2ccc(NS(C)(=O)=O)cc2)cc(-n2ccc(=O)[nH]c2=O)c2c1C(C)(C)CO2`
285 to 288 °C

Check the records and state melting point for `COc1c(/C=C/c2ccc(NS(C)(=O)=O)cc2)cc(-n2ccncc2=O)cc1C(C)(C)C`
214 to 216 °C

* * *

Kindly supply the reported melting point values for the records listed here.

Check the records and state melting point for `COc1c(CCc2ccc(NS(C)(=O)=O)cc2)cc(N2CCCS2(=O)=O)cc1C(C)(C)C`
83 to 86 °C

Check the records and state melting point for `COc1c(/C=C/c2ccc(NS(C)(=O)=O)cc2)cc(-n2cc(F)ccc2=O)cc1C(C)(C)C`
248 to 250 °C

Check the records and state melting point for `COc1c(/C=C/c2ccc(NS(C)(=O)=O)cc2CO)cc(-n2ccncc2=O)cc1C(C)(C)C`
238 to 240 °C

Check the records and state melting point for `COc1c(-c2cc3ccc(NS(C)(=O)=O)cc3c(=O)o2)cc(-n2ccncc2=O)cc1C(C)(C)C`
272 to 275 °C

Check the records and state melting point for `COc1c(CCc2ccc(NS(C)(=O)=O)cc2)cc(N2C(=O)CNC2=O)cc1C(C)(C)C`
230 to 231 °C

Check the records and state melting point for COc1c(CCc2ccc(NS(C)(=O)=O)cc2)cc(N2C(=O)NC(C)C2=O)cc1C(C)(C)C (centres unmarked)
211 to 212 °C

Check the records and state melting point for `COc1c(/C=C/c2ccc(NS(C)(=O)=O)cc2)cc(N2CCCCC2=O)cc1C(C)(C)C`
247 to 249 °C

Check the records and state melting point for `COc1c(/C=C/c2ccc(NS(C)(=O)=O)cc2)cc(-n2ncccc2=O)cc1C(C)(C)C`
260 to 262 °C

* * *

Assayed target: HCV polymerase (NS5B570n-Con1) (Hepatitis C virus genotype 1b, UniProt Q9WMX2)
Construct: contains a 21 amino acid deletion at the C-terminus relative to the full-length HCV polymerase
Assay: HCV NS5B RNA polymerase activity (HCV Polymerase Assay)
Property: IC50
Please report the result as a number followed by the unit.

Check the records and state IC50 for COc1c(/C=C/c2ccc(NS(C)(=O)=O)cc2CO)cc(-n2ccncc2=O)cc1C(C)(C)C [Compound I-17]
0.49 nM

Check the records and state IC50 for COc1c(/C=C/c2ccc(NS(C)(=O)=O)cc2)cc(N2CCCCC2=O)cc1C(C)(C)C [Compound I-8]
16 nM

Check the records and state IC50 for CC(C)(C)c1cc(/C=C/c2ccc(NS(C)(=O)=O)cc2)cc(N2CCCNC2=O)c1 [I-I]
15 nM

* * *

Assayed target: HCV polymerase (NS5B570n-Con1) (Hepatitis C virus genotype 1b, UniProt Q9WMX2)
Construct: contains a 21 amino acid deletion at the C-terminus relative to the full-length HCV polymerase
Assay: HCV NS5B RNA polymerase activity (HCV Polymerase Assay)
Property: pIC50
pIC50 (log units): -log10 of the concentration in mol/L.

Check the records and state pIC50 for `COc1c(/C=C/c2ccc(NS(C)(=O)=O)cc2)cc(-n2ccc(=O)[nH]c2=O)c2c1C(C)(C)CO2`
9.43

Check the records and state pIC50 for `COc1c(/C=C/c2ccc(NS(C)(=O)=O)cc2C(=O)O)cc(-n2ccncc2=O)cc1C(C)(C)C`
9.41

Check the records and state pIC50 for `COc1c(CCc2ccc(NS(C)(=O)=O)cc2)cc(N2CCCNC2=O)cc1C(C)(C)C`
7.89

Check the records and state pIC50 for `COc1c(-c2cc3ccc(NS(C)(=O)=O)cc3c(=O)o2)cc(-n2ccncc2=O)cc1C(C)(C)C`
8.52

Check the records and state pIC50 for `COc1c(/C=C/c2ccc(NS(C)(=O)=O)cc2)cc(N2CCCNC2=O)cc1C(C)(C)C`
8.00

Check the records and state pIC50 for `COc1c(-c2nc3cc(NS(C)(=O)=O)ccc3o2)cc(N2CCCNC2=O)cc1C(C)(C)C`
7.20

Check the records and state pIC50 for `COc1c(/C=C/c2ccc(NS(C)(=O)=O)cc2)cc(-n2c(C)n[nH]c2=O)cc1C(C)(C)C`
9.52

* * *

Assay: in vitro
Assay conditions: human
Property: CC50
Please report the result as a number followed by the unit.

Check the records and state CC50 for `COc1c(/C=C/c2ccc(NS(C)(=O)=O)cc2)cc(N2CCC(C)(C)NC2=O)cc1C(C)(C)C`
13.8 µM

Check the records and state CC50 for `COc1c(/C=C/c2ccc(NS(C)(=O)=O)cc2)cc(-n2ccncc2=O)cc1C(C)(C)C`
21.4 µM

* * *

Assayed target: HCV polymerase (NS5B570n-Con1) (Hepatitis C virus genotype 1b)
Construct: contains a 21 amino acid deletion at the C-terminus relative to the full-length HCV polymerase
Assay: HCV NS5B RNA polymerase activity (HCV Polymerase Assay)
Property: pIC50
pIC50 (log units): -log10 of the concentration in mol/L.

Check the records and state pIC50 for `COc1c(/C=C/c2ccc(NS(C)(=O)=O)cc2C(=O)O)cc(N2CCCNC2=O)cc1C(C)(C)C`
9.64

Check the records and state pIC50 for COc1c(CCc2ccc(NS(C)(=O)=O)cc2)cc(N2C(=O)NC(C)C2=O)cc1C(C)(C)C (stereo not shown)
7.72

Check the records and state pIC50 for `COc1c(CCc2ccc(NS(C)(=O)=O)cc2)cc(N2C(=O)CNC2=O)cc1C(C)(C)C`
7.82

Check the records and state pIC50 for `COC(=O)c1cc(NS(C)(=O)=O)ccc1/C=C/c1cc(-n2ccncc2=O)cc(C(C)(C)C)c1OC`
9.00

Check the records and state pIC50 for `COc1c(/C=C/c2ccc(NS(C)(=O)=O)cc2)cc(-n2ccccc2=O)cc1C(C)(C)C`
9.00

Check the records and state pIC50 for `COc1c(/C=C/c2ccc(NS(C)(=O)=O)cc2)cc(N2CCC(C)(C)NC2=O)cc1C(C)(C)C`
9.00

Check the records and state pIC50 for `COc1c(/C=C/c2ccc(NS(C)(=O)=O)cc2)cc(-n2ncccc2=O)cc1C(C)(C)C`
9.42

Check the records and state pIC50 for `COc1c(/C=C/c2ccc(NS(C)(=O)=O)cc2)cc(-n2ccncc2=O)cc1C(C)(C)C`
9.51

Check the records and state pIC50 for `COc1c(/C=C/c2ccc(NS(C)(=O)=O)cc2)cc(-n2cc(F)ccc2=O)cc1C(C)(C)C`
8.30

Check the records and state pIC50 for `COc1c(/C=C/c2ccc(NS(C)(=O)=O)cc2)cc(-n2cnccc2=O)cc1C(C)(C)C`
9.00

Check the records and state pIC50 for `COc1c(/C=C/c2ccccc2C(=O)O)cc(-n2ccccc2=O)cc1C(C)(C)C`
8.30

Check the records and state pIC50 for `COc1c(CCc2ccc(NS(C)(=O)=O)cc2)cc(N2CCNC2=O)cc1C(C)(C)C`
7.49

Check the records and state pIC50 for `COc1c(/C=C/c2ccccc2C(=O)O)cc(-n2ccncc2=O)cc1C(C)(C)C`
8.70

Check the records and state pIC50 for `COc1c(CCc2ccc(NS(C)(=O)=O)cc2)cc(N2CCCS2(=O)=O)cc1C(C)(C)C`
7.08

Check the records and state pIC50 for `COc1c(CCc2ccc(NS(C)(=O)=O)cc2)cc(N2C(=O)CCNC2=O)cc1C(C)(C)C`
7.20

Check the records and state pIC50 for `COc1c(/C=C/c2ccc(NS(C)(=O)=O)cc2)cc(N2CCCNS2(=O)=O)cc1C(C)(C)C`
8.29

* * *

Property: melting point

Check the records and state melting point for `CC(C)(C)c1cc(/C=C/c2ccc(NS(C)(=O)=O)cc2)cc(N2CCCNC2=O)c1`
235 to 237 °C

Check the records and state melting point for `COc1c(CCc2ccc(NS(C)(=O)=O)cc2)cc(N2CCNC2=O)cc1C(C)(C)C`
229 to 231 °C

Check the records and state melting point for `COc1c(/C=C/c2ccc(NS(C)(=O)=O)cc2)cc(-n2cnccc2=O)cc1C(C)(C)C`
202 to 204 °C

Check the records and state melting point for `COc1c(/C=C/c2ccc(NS(C)(=O)=O)cc2C(=O)O)cc(-n2ccncc2=O)cc1C(C)(C)C`
176 to 179 °C
